B1: TPPP (parent)
chain: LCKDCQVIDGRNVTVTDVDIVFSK

Variants of: B1
protocolDescription: protein stability index of a GFP-peptide fusion (GPS, HEK-293T) (PSI 1-6); higher = more stable;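 further: lentivirally expressed fusions sorted by FACS into six bins by GFP to DsRed ratio, PSI derived from sequencing read proportions per bin multiplied by bin number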
experimentalConditions: c terminus: a fixed tail appended

[
  {
    "mutationId": "V7Y",
    "protein stability index": 1.53
  },
  {
    "mutationId": "I8W",
    "protein stability index": 1.83
  },
  {
    "mutationId": "R11T",
    "protein stability index": 2.35
  },
  {
    "mutationId": "V21M",
    "protein stability index": 1.96
  },
  {
    "mutationId": "K24C",
    "protein stability index": 2.02
  },
  {
    "mutationId": "D4A",
    "protein stability index": 1.76
  },
  {
    "mutationId": "I20W",
    "protein stability index": 1.98
  },
  {
    "mutationId": "V18C",
    "protein stability index": 2.48
  },
  {
    "mutationId": "N12F",
    "protein stability index": 2.48
  },
  {
    "mutationId": "Q6V",
    "protein stability index": 2.14
  },
  {
    "mutationId": "F22H",
    "protein stability index": 4.43
  }
]
